System: isoproterenol antagonism concerning myocardial contractile force, heart rate and diastolic blood pressure
Assay: isoproterenol antagonism in anesthetized dogs
Type: in vivo
Conditions: anesthetized dogs; activity of Propranolol is 1
Cut-off 0.6 on Inhibition of decrease in diastolic blood pressure, relative activity: below means Yes, at or above means No.

| COMPOUND | GROUP |
| --- | --- |
| CC(=O)c1cc2cccc(OCC(O)CNC(C)C)c2o1 (centres unmarked) | No |
| CC(=NC(C)C)c1cc2cccc(OCC(O)CNC(C)C)c2o1 (centres unmarked) | No |
| CCC(C)N=C(C)c1cc2cccc(OCC(O)CNC(C)CC)c2o1 (centres unmarked) | No |
| CCc1cc2c(C(C)=O)ccc(OCC(O)CNC(C)C)c2o1 (centres unmarked) | Yes |

The reported numbers originate from patent US4056626A.
